- assayProcedure: Tmax in po dosed cynomolgus monkey
- Format: ADME, organism-based, Macaca fascicularis
- particulars: in vivo
measureName: Tmax

CC(C)OC(=O)N1CCC(Oc2ncnc3c2cnn3-c2ccc(S(C)(=O)=O)cc2F)CC1 has a reported Tmax of ≤ 2 h

---

- measuredOn: Glucose-dependent insulinotropic receptor (Homo sapiens, UniProt Q8TDV5)
- assayProcedure: Agonist activity at human GPR119 by melanophore assay
As shown below, each of these compounds has a reported pEC50 value.
In textbook form, pEC50 equals minus log to base ten of the concentration in mol/L.

Solved cases (5 shown):
>  <compound>
CC(C)OC(=O)N1CCC(Oc2ncnc3c2cnn3-c2ccc(S(C)(=O)=O)cc2)CC1

>  <measuredOn>
Glucose-dependent insulinotropic receptor (Homo sapiens, UniProt Q8TDV5)

>  <pEC50>
8.46

$$$$
>  <compound>
CS(=O)(=O)c1ccc(-n2ncc3c(OC4CCN(C(=O)OC5CCOC5)CC4)ncnc32)cc1 (stereo not given)

>  <measuredOn>
Glucose-dependent insulinotropic receptor (Homo sapiens, UniProt Q8TDV5)

>  <pEC50>
6.36

$$$$
>  <compound>
CC(C)c1noc(C2CCN(c3ncnc(Nc4ccc(S(C)(=O)=O)cc4F)c3[N+](=O)[O-])CC2)n1

>  <measuredOn>
Glucose-dependent insulinotropic receptor (Homo sapiens, UniProt Q8TDV5)

>  <pEC50>
9.19

$$$$
>  <compound>
CC(C)(C)OC(=O)N1CCC(Oc2ncnc3c2cnn3-c2ccc(S(C)(=O)=O)cc2F)CC1

>  <measuredOn>
Glucose-dependent insulinotropic receptor (Homo sapiens, UniProt Q8TDV5)

>  <pEC50>
9.05

$$$$
>  <compound>
CS(=O)(=O)c1ccc(-n2ncc3c(OC4CCN(C(=O)OC5CCCC5)CC4)ncnc32)cc1

>  <measuredOn>
Glucose-dependent insulinotropic receptor (Homo sapiens, UniProt Q8TDV5)

>  <pEC50>
7.84

$$$$

Please examine the following record next.
Entry CC(C)(C)OC(=O)N1CCC(Oc2ncnc3c(-c4ccc(S(C)(=O)=O)cc4)noc23)CC1 , tested on Glucose-dependent insulinotropic receptor (Homo sapiens, UniProt Q8TDV5), has a reported pEC50 of 9.15

---

As shown below, each of these molecules has a reported Emax value.
- measuredOn: Glucose-dependent insulinotropic receptor (Homo sapiens) (UniProt Q8TDV5)
- Sequence (whole entry): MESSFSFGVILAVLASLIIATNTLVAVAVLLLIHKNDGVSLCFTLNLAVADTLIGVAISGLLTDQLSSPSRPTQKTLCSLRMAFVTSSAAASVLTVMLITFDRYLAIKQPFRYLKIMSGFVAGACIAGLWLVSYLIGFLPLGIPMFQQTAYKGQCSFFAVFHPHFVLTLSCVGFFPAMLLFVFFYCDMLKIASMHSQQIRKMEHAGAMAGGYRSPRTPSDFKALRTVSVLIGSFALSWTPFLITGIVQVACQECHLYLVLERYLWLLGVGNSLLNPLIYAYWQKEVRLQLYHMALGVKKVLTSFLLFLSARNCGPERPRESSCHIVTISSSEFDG
- assayProcedure: Agonist activity at human GPR119 by melanophore assay relative to AR231453
- Assay type: functional
I only need the number, in %, no unit after it.

>  <molecule>
CC(C)COC(=O)N1CCC(Oc2ncnc3c2cnn3-c2ccc(S(C)(=O)=O)cc2)CC1

>  <measureName>
Emax

>  <reportedResult>
99

$$$$
>  <molecule>
CN(CC1CCN(C(=O)OC(C)(C)C)CC1)c1ncnc2c1cnn2-c1ccc(S(C)(=O)=O)cc1

>  <measureName>
Emax

>  <reportedResult>
89

$$$$
>  <molecule>
CCN(CC1CCN(C(=O)OC(C)(C)C)CC1)c1ncnc2c1cnn2-c1ccc(S(C)(=O)=O)cc1

>  <measureName>
Emax

>  <reportedResult>
67

$$$$

Entry CC(C)(C)OC(=O)N1CCC(CNc2ncnc3c2cnn3-c2ccc(S(C)(=O)=O)cc2)CC1 , tested on Glucose-dependent insulinotropic receptor (Homo sapiens) (UniProt Q8TDV5), has a reported Emax of 87

Entry CCOC(=O)N1CCC(Oc2ncnc3c2cnn3-c2ccc(S(C)(=O)=O)cc2)CC1 , tested on Glucose-dependent insulinotropic receptor (Homo sapiens) (UniProt Q8TDV5), has a reported Emax of 91

Entry CC(C)(C)OC(=O)N1CCC(Oc2ncnc3c2ncn3-c2ccc(S(C)(=O)=O)cc2)CC1 , tested on Glucose-dependent insulinotropic receptor (Homo sapiens) (UniProt Q8TDV5), has a reported Emax of 95

Entry CC(C)(C)OC(=O)N1CCC(Sc2ncnc3c2cnn3-c2ccc(S(C)(=O)=O)cc2F)CC1 , tested on Glucose-dependent insulinotropic receptor (Homo sapiens) (UniProt Q8TDV5), has a reported Emax of 98

Entry CC(C)(C)OC(=O)N1CCC(Oc2ncnc3c2[nH]c(=O)n3-c2ccc(S(C)(=O)=O)cc2F)CC1 , tested on Glucose-dependent insulinotropic receptor (Homo sapiens) (UniProt Q8TDV5), has a reported Emax of 64

---

- measuredOn: Glucose-dependent insulinotropic receptor (Homo sapiens, UniProt Q8TDV5)
- Sequence (Q8TDV5 whole entry): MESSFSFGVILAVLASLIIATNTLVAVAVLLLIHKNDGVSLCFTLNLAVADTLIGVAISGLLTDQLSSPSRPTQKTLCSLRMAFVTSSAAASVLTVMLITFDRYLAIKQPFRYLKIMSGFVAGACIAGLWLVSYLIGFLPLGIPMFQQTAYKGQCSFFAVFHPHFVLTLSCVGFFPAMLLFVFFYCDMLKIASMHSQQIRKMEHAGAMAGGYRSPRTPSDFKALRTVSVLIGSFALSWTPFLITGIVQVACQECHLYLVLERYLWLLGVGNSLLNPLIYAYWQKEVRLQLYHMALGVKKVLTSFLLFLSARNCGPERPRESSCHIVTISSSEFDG
- assayProcedure: Agonist activity at human GPR119 by melanophore assay
measureName: EC50 (nM)
I only need the number, in nM, no unit after it.

Solved cases (3 shown):
>  <compound>
Cc1nc(OC2CCN(C(=O)OC(C)(C)C)CC2)c2c(C)nn(-c3ccc(S(C)(=O)=O)cc3)c2n1

>  <measuredOn>
Glucose-dependent insulinotropic receptor (Homo sapiens, UniProt Q8TDV5)

>  <measureName>
EC50

>  <reportedResult>
116

$$$$
>  <compound>
CC(C)(C)OC(=O)N1CCC([S+]([O-])c2ncnc3c2cnn3-c2ccc(S(C)(=O)=O)cc2)CC1 (centres undefined)

>  <measuredOn>
Glucose-dependent insulinotropic receptor (Homo sapiens, UniProt Q8TDV5)

>  <measureName>
EC50

>  <reportedResult>
2400

$$$$
>  <compound>
CCCCOC(=O)N1CCC(Oc2ncnc3c2cnn3-c2ccc(S(C)(=O)=O)cc2)CC1

>  <measuredOn>
Glucose-dependent insulinotropic receptor (Homo sapiens, UniProt Q8TDV5)

>  <measureName>
EC50

>  <reportedResult>
7.5

$$$$

Please examine the following record next.
Entry CCOC(=O)N1CCC(Oc2ncnc3c2cnn3-c2ccc(S(C)(=O)=O)cc2)CC1 , tested on Glucose-dependent insulinotropic receptor (Homo sapiens, UniProt Q8TDV5), has a reported EC50 of 3.8
